- assayed-system: T1, PKC-δ (purified isoform)
- T1 construct: also called PKC-delta
- T1 sequence (Q05655 whole entry, stated change not applied, canonical isoform): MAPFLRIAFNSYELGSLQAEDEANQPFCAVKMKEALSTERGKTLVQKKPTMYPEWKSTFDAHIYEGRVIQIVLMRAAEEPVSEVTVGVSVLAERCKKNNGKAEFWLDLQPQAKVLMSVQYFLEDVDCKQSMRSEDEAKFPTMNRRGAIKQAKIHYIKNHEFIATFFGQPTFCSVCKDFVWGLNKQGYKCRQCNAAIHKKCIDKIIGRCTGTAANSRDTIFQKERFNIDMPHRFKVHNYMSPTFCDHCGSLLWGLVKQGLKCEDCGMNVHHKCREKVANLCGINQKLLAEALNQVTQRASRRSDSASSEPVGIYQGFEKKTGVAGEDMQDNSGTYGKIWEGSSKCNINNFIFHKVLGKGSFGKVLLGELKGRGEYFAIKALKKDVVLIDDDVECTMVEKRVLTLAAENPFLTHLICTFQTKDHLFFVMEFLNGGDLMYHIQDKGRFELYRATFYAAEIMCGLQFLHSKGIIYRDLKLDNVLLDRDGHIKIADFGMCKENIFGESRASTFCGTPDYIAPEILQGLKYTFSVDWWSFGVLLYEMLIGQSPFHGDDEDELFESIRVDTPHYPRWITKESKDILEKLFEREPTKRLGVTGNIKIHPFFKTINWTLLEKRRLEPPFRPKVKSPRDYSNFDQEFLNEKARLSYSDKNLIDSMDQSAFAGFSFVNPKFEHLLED
- assay-remarks: competitive ELISA, coated purified PKC-δ, vs anti-PKC δ (SC-213); PRE 100 µM
Kindly supply the reported relative binding capacity (100-%n, DMSO subtracted) values for the records listed here.
Numbers only, in %.

Field: example entries. Status: answers known.
{"columns": ["binder", "recorded-value"],
 "data": [
  ["Ac-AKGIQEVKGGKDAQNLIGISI-NH2 (also called peptide PRE 5) [PRE 5]", 0],
  ["ILEDKGGDAQNLIGISI (also called peptide PRE 8) [PRE 8]", 3.38],
  ["Ac-ISIGILQNADK-NH2 (also called peptide PRE 7) [PRE 7]", 0]
]}

We next turn to a different binder, shown below.
The measured relative binding capacity (100-%n, DMSO subtracted) associated with Ac-KDAQNLIGISI-NH2 (also called peptide PRE 4) [PRE 4] reads 30.7

All figures here come from patent US20110039770A1.
